Cited source: BigSolDB 2.1

- runParameters: in n-heptanol, 298.15 K
reportedMetric: solubility (mole fraction)
Provide a numeric answer; units are not to be included.

Determine its reported solubility (mole fraction): Cc1c(C(=O)O)cc([N+](=O)[O-])cc1[N+](=O)[O-]
0.017

###

- runParameters: in ethyl acetate, 323.15 K
reportedMetric: solubility (mole fraction)
Form: value (number only, do not type unit).

Provide measured solubility (mole fraction) value, entry: Cc1c(C(=O)O)cc([N+](=O)[O-])cc1[N+](=O)[O-]
0.0611

###

- runParameters: in isopropanol, 318.15 K
reportedMetric: solubility (mole fraction)
The response must contain the number and no unit.

Hello, please tell me recorded solubility (mole fraction) for this one: Cc1c(C(=O)O)cc([N+](=O)[O-])cc1[N+](=O)[O-]
0.0276

###

- runParameters: in acetonitrile, 313.15 K
reportedMetric: solubility (mole fraction)
// no unit string in output, number only

Give solubility (mole fraction) for the following molecule: Cc1c(C(=O)O)cc([N+](=O)[O-])cc1[N+](=O)[O-]
0.0176

###

- runParameters: in n-pentanol, 313.15 K
reportedMetric: solubility (mole fraction)

Item Cc1c(C(=O)O)cc([N+](=O)[O-])cc1[N+](=O)[O-] : provide solubility (mole fraction)
0.026

###

- runParameters: in ethanol, 303.15 K
reportedMetric: solubility (mole fraction)

Supply recorded solubility (mole fraction) for Cc1c(C(=O)O)cc([N+](=O)[O-])cc1[N+](=O)[O-] here.
0.0695

###

- runParameters: in water, 293.15 K
reportedMetric: solubility (mole fraction)
// print number alone

Entry Cc1c(C(=O)O)cc([N+](=O)[O-])cc1[N+](=O)[O-] needs its solubility (mole fraction) filled in; supply it.
2.35e-05

###

- runParameters: in sec-butanol, 318.15 K
reportedMetric: solubility (mole fraction)
Number only, no unit.

Dear colleague, please send me the reported solubility (mole fraction) for Cc1c(C(=O)O)cc([N+](=O)[O-])cc1[N+](=O)[O-] when you can.
0.03

###

- runParameters: in n-hexanol, 328.15 K
reportedMetric: solubility (mole fraction)
Just the number.

// Input: Cc1c(C(=O)O)cc([N+](=O)[O-])cc1[N+](=O)[O-] . Output its solubility (mole fraction) only.
0.0338

###

- runParameters: in n-hexanol, 323.15 K
reportedMetric: solubility (mole fraction)
Please reply with the number alone, leaving off any unit.

Note down solubility (mole fraction) recorded for Cc1c(C(=O)O)cc([N+](=O)[O-])cc1[N+](=O)[O-]
0.0288

###

- runParameters: in water, 288.15 K
reportedMetric: solubility (mole fraction)

Look up and state reported solubility (mole fraction) for Cc1c(C(=O)O)cc([N+](=O)[O-])cc1[N+](=O)[O-]
1.67e-05

###

- runParameters: in ethanol, 293.15 K
reportedMetric: solubility (mole fraction)
Just the number.

Input Cc1c(C(=O)O)cc([N+](=O)[O-])cc1[N+](=O)[O-] , output reported solubility (mole fraction).
0.0526

###

- runParameters: in sec-butanol, 313.15 K
reportedMetric: solubility (mole fraction)

# return recorded solubility (mole fraction) for entry Cc1c(C(=O)O)cc([N+](=O)[O-])cc1[N+](=O)[O-]
0.0257

###

- runParameters: in ethanol, 328.15 K
reportedMetric: solubility (mole fraction)
// no unit string in output, number only

Let me know recorded solubility (mole fraction) for Cc1c(C(=O)O)cc([N+](=O)[O-])cc1[N+](=O)[O-] , thanks.
0.123
